activity at 1 µM values by entry
- target.system: KNCQ2/3 (Kv7.2/7.3) (Homo sapiens, UniProt O43525+O43526)
- Construct: host or cells: HEK293
- protocol.notes: Kv7.2/7.3 (KNCQ2/3) activation assay, QPatch single concentration screen
- Type: cell-based
- measurement.context: increase in current over baseline, HEK293 cells with overexpressed Kv7.2/3, compound 1 μM, steady-state current at +40 mV

molecule | value.measured
CC(C)(C)CC(=O)Nc1nn2c(c1C1CCCCC1)CC(C(F)(F)F)CC2 (stereo not shown) | ≥ 300%

q: Return reported activity at 1 µM. Input molecule: CC(C)(C)CC(=O)Nc1nn2c(c1-c1ccc(F)cc1)CN(C(F)(F)F)CC2
a: 100 to 200%

q: Return reported activity at 1 µM. Input molecule: O=C(CC1CSC1)Nc1nn2c(c1-c1ccc(F)cc1)CC(C(F)(F)F)CC2 (stereo not shown)
a: 100 to 200%

q: Return reported activity at 1 µM. Input molecule: CC(C)(C)CC(=O)Nc1nn2c(c1-c1cccnc1)CC(C(F)(F)F)CC2 (stereo not shown)
a: 100 to 200%

q: Return reported activity at 1 µM. Input molecule: CC(C)(CC(=O)Nc1nn2c(c1-c1ccc(F)cc1)CN(C1CC1)CC2)C(F)(F)F
a: 100 to 200%

q: Return reported activity at 1 µM. Input molecule: C=CCN1CCn2nc(NC(=O)CC(C)(C)C)c(-c3ccc(F)cc3)c2C1
a: 100 to 200%

q: Return reported activity at 1 µM. Input molecule: CC(C)(C)CC(=O)Nc1nc2n(c1C1CCCCC1)CCCC2
a: 100 to 200%

###

- target.system: KNCQ2/3 (Kv7.2/7.3) (Homo sapiens, UniProt O43525+O43526)
- Construct: host or cells: HEK293
- protocol.notes: Kv7.2/7.3 (KNCQ2/3) activation assay, QPatch single concentration screen
- Assay type: cell-based
- measurement.context: increase in current over baseline, HEK293 cells with overexpressed Kv7.2/3, compound 1 μM, steady-state current at +40 mV
assay.metric: activity at 1 µM

Below, each entry is followed by its recorded activity at 1 µM result.
molecule | activity at 1 µM
CC(C)(C)CC(=O)Nc1nn2c(c1C1CCC1)CC(C(F)(F)F)CC2 (stereo not drawn) [Compound 20] | ≥ 300%
O=C(CC1CC(F)(F)C1)Nc1nn2c(c1-c1ccc(F)cc1)CC(C(F)(F)F)CC2 (stereo not drawn) [Compound 32] | ≥ 300%

q: Return reported activity at 1 µM. Input molecule: CC(C)(C)CC(=O)Nc1nc2ncccc2n1-c1ccc(F)cc1 [Compound 60]
a: 100 to 200%
